Each recorded value in this set is attributed to patent US10118947B2.

assay: Quantitative plasma stability Method #3 (LC-MS, 95% plasma), human plasma; format: in vitro ADME; conditions: Table 2, ex vivo human plasma, read-out: Human Plasma Stability (t½ in hrs) (converted)
Numbered stars: 1 amine (or outer) side, 2 acyl side, 3 side chain; on linkers, the order of the positions; unused ones are H or OH. Bridge positions count the residues as written; N and C are the ends. Peptide text beside a SMILES is read from it. TBMB = c1c(C[*:1])cc(C[*:3])cc1C[*:2]
Quantity: half-life at 5 uM (h)
# number only, unit h dropped from output

Item: CC(=O)N[C@H]1CSCc2cc3cc(c2)CSC[C@H](NC(=O)[C@H](CCCNC(=N)N)NC(=O)[C@H](Cc2ccc(O)cc2)NC(=O)[C@@H]2CCCN2C(=O)[C@H](Cc2ccccc2)NC(=O)[C@H](CO)NC1=O)C(=O)N[C@@H](CC(C)C)C(=O)N[C@@H](Cc1c[nH]cn1)C(=O)N[C@@H](CCC(N)=O)C(=O)N[C@@H](CC(=O)O)C(=O)N[C@@H](CC(C)C)C(=O)N[C@H](C(N)=O)CSC3 [Ac-(06-34-18) Phe2 Tyr4] (Ac-CSFPYRCLHQDLC-NH2; linker 1-7-13 via TBMB) | half-life at 5 uM: 1.4

====

test: Plasma stability / fragment profiling Method #2 (MALDI-TOF, 95% plasma), human plasma; type: in vitro ADME; details: Table 3a; peptide fragments observed after incubation in human plasma
Numbered stars: 1 amine (or outer) side, 2 acyl side, 3 side chain; on linkers, the order of the positions; unused ones are H or OH. Bridge positions count the residues as written; N and C are the ends. Peptide text beside a SMILES is read from it. TBMB = c1c(C[*:1])cc(C[*:3])cc1C[*:2]
Quantity: Fragments (human plasma)

{"Compound": "CC(=O)N[C@H]1CSCc2cc3cc(c2)CSC[C@H](NC(=O)[C@H](CCCNC(=N)N)NC(=O)[C@H](Cc2ccc(O)cc2)NC(=O)[C@@H]2CCCN2C(=O)[C@H](Cc2ccccc2)NC(=O)[C@H](CO)NC1=O)C(=O)N[C@@H](CC(C)C)C(=O)N[C@@H](C)C(=O)N[C@@H](CCC(N)=O)C(=O)N[C@@H](CC(=O)O)C(=O)N[C@@H](CC(C)C)C(=O)N[C@H](C(N)=O)CSC3 [Ac-(06-34-18) Phe2 Tyr4 Ala7] (Ac-CSFPYRCLAQDLC-NH2; linker 1-7-13 via TBMB)", "Measurement": "-R"}
{"Compound": "CC(=O)N[C@H]1CSCc2cc3cc(c2)CSC[C@H](NC(=O)[C@H](CCCNC(=N)N)NC(=O)[C@H](Cc2ccc(O)cc2)NC(=O)[C@@H]2CCCN2C(=O)[C@H](Cc2ccccc2)NC(=O)[C@H](CO)NC1=O)C(=O)N[C@@H](CC(C)C)C(=O)N[C@@H](Cc1c[nH]cn1)C(=O)N[C@@H](CCC(N)=O)C(=O)N[C@@H](CC(=O)O)C(=O)N[C@@H](CC(C)C)C(=O)N[C@H](C(N)=O)CSC3 [Ac-(06-34-18) Phe2 Tyr4] (Ac-CSFPYRCLHQDLC-NH2; linker 1-7-13 via TBMB)", "Measurement": "-LHQ"}

====

Measured log10(Ki) accompanies every entry in the list below.
target: human plasma Kallikrein (Homo sapiens, UniProt P03952); construct: purchased Stratech, UK; test: Functional enzyme inhibition assay with fluorogenic substrate Z-PheArg-AMC, human plasma Kallikrein; format: biochemical; conditions: Table 25a, α-N-methyl amino acid scan in Loop2; human plasma kallikrein; read-out: Ki
Sequence (P03952 20-638): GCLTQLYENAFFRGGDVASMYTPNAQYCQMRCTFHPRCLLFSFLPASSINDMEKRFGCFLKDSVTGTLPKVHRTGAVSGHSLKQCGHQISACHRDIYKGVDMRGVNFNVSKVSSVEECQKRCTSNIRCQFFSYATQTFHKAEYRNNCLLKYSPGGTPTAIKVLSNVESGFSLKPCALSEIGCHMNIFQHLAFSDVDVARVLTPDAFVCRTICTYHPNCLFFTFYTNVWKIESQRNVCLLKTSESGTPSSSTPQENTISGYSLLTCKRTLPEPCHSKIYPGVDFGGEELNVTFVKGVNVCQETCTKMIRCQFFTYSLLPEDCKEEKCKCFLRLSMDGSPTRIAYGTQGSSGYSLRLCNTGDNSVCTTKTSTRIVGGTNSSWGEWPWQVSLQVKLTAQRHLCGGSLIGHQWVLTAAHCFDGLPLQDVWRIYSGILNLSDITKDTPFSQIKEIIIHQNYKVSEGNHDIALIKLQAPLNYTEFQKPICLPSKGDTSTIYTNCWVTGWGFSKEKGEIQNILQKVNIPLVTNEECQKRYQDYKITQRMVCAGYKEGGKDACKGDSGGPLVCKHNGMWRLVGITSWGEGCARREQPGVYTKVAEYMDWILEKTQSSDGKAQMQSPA
Numbered stars: 1 amine (or outer) side, 2 acyl side, 3 side chain; on linkers, the order of the positions; unused ones are H or OH. Bridge positions count the residues as written; N and C are the ends. Square brackets hold non-standard residues; d marks the D form. Peptide text beside a SMILES is read from it. TBMB = c1c(C[*:1])cc(C[*:3])cc1C[*:2]; NMeH = CN[C@@H](Cc1c[nH]cn1)C(=O)O; NMeQ = CN[C@@H](CCC(N)=O)C(=O)O; NMeD = CN[C@@H](CC(=O)O)C(=O)O; NMeL = CN[C@@H](CC(C)C)C(=O)O
Log10 applied to Ki; unit prior to transform: nM.

{"Molecule": "CC(=O)N[C@H]1CSCc2cc3cc(c2)CSC[C@H](NC(=O)[C@H](CCCNC(=N)N)NC(=O)[C@H](Cc2ccc(O)cc2)NC(=O)[C@@H]2CCCN2C(=O)[C@H](Cc2ccccc2)NC(=O)[C@H](CO)NC1=O)C(=O)N[C@@H](CC(C)C)C(=O)N[C@@H](Cc1c[nH]cn1)C(=O)N(C)[C@@H](CCC(N)=O)C(=O)N[C@@H](CC(=O)O)C(=O)N[C@@H](CC(C)C)C(=O)N[C@H](C(N)=O)CSC3 [Ac-(06-34-18) Phe2 Tyr4 NMe-Gln8] (Ac-CSFPYRCLH[NMeQ]DLC-NH2; linker 1-7-13 via TBMB)", "Measurement": 1.80}
{"Molecule": "CC(=O)N[C@H]1CSCc2cc3cc(c2)CSC[C@H](NC(=O)[C@H](CCCNC(=N)N)NC(=O)[C@H](Cc2ccc(O)cc2)NC(=O)[C@@H]2CCCN2C(=O)[C@H](Cc2ccccc2)NC(=O)[C@H](CO)NC1=O)C(=O)N[C@@H](CC(C)C)C(=O)N[C@@H](Cc1c[nH]cn1)C(=O)N[C@@H](CCC(N)=O)C(=O)N(C)[C@@H](CC(=O)O)C(=O)N[C@@H](CC(C)C)C(=O)N[C@H](C(N)=O)CSC3 [Ac-(06-34-18) Phe2 Tyr4 NMe-Asp9] (Ac-CSFPYRCLHQ[NMeD]LC-NH2; linker 1-7-13 via TBMB)", "Measurement": 1.65}
{"Molecule": "CC(=O)N[C@H]1CSCc2cc3cc(c2)CSC[C@H](NC(=O)[C@H](CCCNC(=N)N)NC(=O)[C@H](Cc2ccc(O)cc2)NC(=O)[C@@H]2CCCN2C(=O)[C@H](Cc2ccccc2)NC(=O)[C@H](CO)NC1=O)C(=O)N(C)[C@@H](CC(C)C)C(=O)N[C@@H](Cc1c[nH]cn1)C(=O)N[C@@H](CCC(N)=O)C(=O)N[C@@H](CC(=O)O)C(=O)N[C@@H](CC(C)C)C(=O)N[C@H](C(N)=O)CSC3 [Ac-(06-34-18) Phe2 Tyr4 NMe-Leu6] (Ac-CSFPYRC[NMeL]HQDLC-NH2; linker 1-7-13 via TBMB)", "Measurement": 1.76}
{"Molecule": "CC(=O)N[C@H]1CSCc2cc3cc(c2)CSC[C@H](NC(=O)[C@H](CCCNC(=N)N)NC(=O)[C@H](Cc2ccc(O)cc2)NC(=O)[C@@H]2CCCN2C(=O)[C@H](Cc2ccccc2)NC(=O)[C@H](CO)NC1=O)C(=O)N[C@@H](CC(C)C)C(=O)N[C@@H](Cc1c[nH]cn1)C(=O)N[C@@H](CCC(N)=O)C(=O)N[C@@H](CC(=O)O)C(=O)N(C)[C@@H](CC(C)C)C(=O)N[C@H](C(N)=O)CSC3 [Ac-(06-34-18) Phe2 Tyr4 NMe-Leu10] (Ac-CSFPYRCLHQD[NMeL]C-NH2; linker 1-7-13 via TBMB)", "Measurement": 2.77}

Turning now to a further molecule:
Response field log10(Ki) (human plasma Kallikrein (Homo sapiens, UniProt P03952)) for item CC(=O)N[C@H]1CSCc2cc3cc(c2)CSC[C@H](NC(=O)[C@H](CCCNC(=N)N)NC(=O)[C@H](Cc2ccc(O)cc2)NC(=O)[C@@H]2CCCN2C(=O)[C@H](Cc2ccccc2)NC(=O)[C@H](CO)NC1=O)C(=O)N[C@@H](CC(C)C)C(=O)N(C)[C@@H](Cc1cnc[nH]1)C(=O)N[C@@H](CCC(N)=O)C(=O)N[C@@H](CC(=O)O)C(=O)N[C@@H](CC(C)C)C(=O)N[C@H](C(N)=O)CSC3 [Ac-(06-34-18) Phe2 Tyr4 NMe-His7] (Ac-CSFPYRCL[NMeH]QDLC-NH2; linker 1-7-13 via TBMB) : 1.80

====

experiment: Plasma stability profiling Method #1 (MALDI-TOF, 35% plasma), rat plasma; type: in vitro ADME; details: Table 13; method #1
Numbered stars: 1 amine (or outer) side, 2 acyl side, 3 side chain; on linkers, the order of the positions; unused ones are H or OH. Bridge positions count the residues as written; N and C are the ends. Square brackets hold non-standard residues; d marks the D form. Peptide text beside a SMILES is read from it. Pro(trans-4-Ph) = O=C(O)[C@@H]1C[C@@H](c2ccccc2)CN1; TBMB = c1c(C[*:1])cc(C[*:3])cc1C[*:2]
Quantity: Observable in rat plasma, for days (days)
# number only, unit days dropped from output

Item: CC(=O)N[C@H]1CSCc2cc3cc(c2)CSC[C@H](NC(=O)[C@H](CCCNC(=N)N)NC(=O)[C@H](C)NC(=O)[C@@H]2C[C@@H](c4ccccc4)CN2C(=O)[C@H](Cc2c[nH]c4ccccc24)NC(=O)[C@H](CO)NC1=O)C(=O)N[C@@H](CC(C)C)C(=O)N[C@@H](Cc1c[nH]cn1)C(=O)N[C@@H](CCC(N)=O)C(=O)N[C@@H](CC(=O)O)C(=O)N[C@@H](CC(C)C)C(=O)N[C@H](C(N)=O)CSC3 [Ac-(06-34-18) 4Phenyl Pro3] (Ac-CSW[Pro(trans-4-Ph)]ARCLHQDLC-NH2; linker 1-7-13 via TBMB) | Observable in rat plasma, for days: 2
